target under test: recombinant human cGAS (aa147-522) (Homo sapiens, UniProt Q8N884)
Construct: recombinant human cGAS (aa147-522); His6-SUMO (cleaved yes); made in house; host or cells: E. coli BL21/pLys
Sequence (Q8N884 147-522): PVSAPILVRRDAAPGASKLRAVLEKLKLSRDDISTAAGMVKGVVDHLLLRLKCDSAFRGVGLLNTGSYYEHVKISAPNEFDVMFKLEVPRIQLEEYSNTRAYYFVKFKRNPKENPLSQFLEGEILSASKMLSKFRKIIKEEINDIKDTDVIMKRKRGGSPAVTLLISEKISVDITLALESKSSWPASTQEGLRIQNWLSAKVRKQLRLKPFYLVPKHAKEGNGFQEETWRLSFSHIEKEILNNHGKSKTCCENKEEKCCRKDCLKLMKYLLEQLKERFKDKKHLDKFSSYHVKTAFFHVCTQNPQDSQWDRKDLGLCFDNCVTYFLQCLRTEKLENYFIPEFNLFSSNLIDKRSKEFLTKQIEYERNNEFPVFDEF
experimental protocol: In vitro inhibition assay of cGAS activity (ATP consumption, KinaseGlo Max)
Assay type: biochemical
condition summary: Table 2, read-out: cGAS Inhibition Results IC50
Give IC50 for every item shown.

Tell us which IC50 value is on record for O=C(O)[C@@H]1[C@H](O)CCN1c1cc(-n2ccnc2)c2ccc(Cl)c(Cl)c2n1 < 2 µM

Tell us which IC50 value is on record for O=C1NCCC1Nc1cc(-n2ccnc2)c2ccc(Cl)cc2n1 (stereo not shown) > 30 µM

Tell us which IC50 value is on record for COc1c(Cl)ccc2c(-c3cn[nH]c3)cc(NCCO)nc12 > 30 µM

Tell us which IC50 value is on record for O=P(O)(O)CCCNc1cc(-c2cn[nH]c2)c2ccc(Cl)c(Cl)c2n1 < 2 µM

Tell us which IC50 value is on record for CN(CCNS(C)(=O)=O)c1cc(-n2ccnc2)c2ccc(Cl)cc2n1 < 2 µM

Tell us which IC50 value is on record for COCCN(C)c1cc(-n2ccnc2)c2ccc(Cl)c(Cl)c2n1 < 2 µM

Tell us which IC50 value is on record for COc1c(-c2ccccc2)ccc2c(-n3ccnc3)cc(-c3ccccc3)nc12 > 30 µM

###

target under test: recombinant human cGAS (aa147-522) (Homo sapiens)
Construct: recombinant human cGAS (aa147-522); His6-SUMO (cleaved yes); made in house; host or cells: E. coli BL21/pLys
experimental protocol: In vitro inhibition assay of cGAS activity (ATP consumption, KinaseGlo Max)
Assay type: biochemical
condition summary: Table 2, read-out: cGAS Inhibition Results IC50
pIC50: −log10 of the molar value.
Give pIC50 for every item shown.

Tell us which pIC50 value is on record for O=C(O)C1CN(c2cc(-n3ccnc3)c3ccc(Cl)c(Cl)c3n2)CCN1 (stereo not shown) [I-79] > 5.70

Tell us which pIC50 value is on record for CN(CCNS(=O)(=O)C1CC1)c1cc(-n2ccnc2)c2ccc(Cl)cc2n1 [I-226] 4.52 to 5.70

Tell us which pIC50 value is on record for Clc1ccc2c(-c3cc[nH]c3)cc(-c3ccccc3)nc2c1 [I-72] < 4.52

Tell us which pIC50 value is on record for CC(C)c1ccc2c(-c3cn[nH]c3)cc(NCCS(N)(=O)=O)nc2c1 [I-269] < 4.52

Tell us which pIC50 value is on record for O=C(O)[C@H]1CN(c2cc(-c3cn[nH]c3)c3ccc(Cl)c(Cl)c3n2)CCO1 [I-328] > 5.70

Tell us which pIC50 value is on record for COCn1nccc1S(=O)(=O)NCCN(C)c1cc(-n2ccnc2)c2ccc(Cl)cc2n1 [I-229] < 4.52

Tell us which pIC50 value is on record for Cc1ccc2c(-c3cn[nH]c3)cc(NCCS(N)(=O)=O)nc2c1 [I-266] < 4.52

Tell us which pIC50 value is on record for O=C(O)[C@H]1CCCN1C(=O)C[C@@H]1CCCN1c1cc(-n2ccnc2)c2ccc(Cl)c(Cl)c2n1 [I-386] > 5.70

Tell us which pIC50 value is on record for O=C(O)c1cc2c(c(-c3cc(-n4ccnc4)c4ccc(Cl)cc4n3)c1)OCO2 [I-37] < 4.52

Tell us which pIC50 value is on record for CC(C)(C)OC(=O)NS(=O)(=O)N1CCOC(CNc2cc(-n3ccnc3)c3ccc(Cl)c(Cl)c3n2)C1 (stereo not shown) [I-398] 4.52 to 5.70

Tell us which pIC50 value is on record for O=C(O)C1CN(c2cc(-n3ccnc3)c3ccc(Cl)c(Cl)c3n2)CCC1O (stereo not shown) [I-332] > 5.70

Tell us which pIC50 value is on record for O=[PH](O)OCC1CCCN(c2cc(-n3ccnc3)c3ccc(Cl)c(Cl)c3n2)C1 (stereo not shown) [I-110] > 5.70

Tell us which pIC50 value is on record for CC(CN1CCOCC1)Nc1cc(-c2cn[nH]c2)c2ccc(Cl)c(Cl)c2n1 (stereo not shown) [I-211] 4.52 to 5.70

Tell us which pIC50 value is on record for O=C1NC(=O)/C(=C\c2cc(-n3ccnc3)c3ccc(Cl)c(Cl)c3n2)S1 [I-276] > 5.70

Tell us which pIC50 value is on record for O=C(CO)NC1CCCN(c2cc(-n3ccnc3)c3ccc(Cl)cc3n2)C1 (stereo not shown) [I-106] 4.52 to 5.70

Tell us which pIC50 value is on record for CS(=O)(=O)C1CCCN(c2cc(-n3ccnc3)c3ccc(Cl)cc3n2)C1 (stereo not shown) [I-117] 4.52 to 5.70

Tell us which pIC50 value is on record for O=C(O)[C@H]1CCN1c1cc(-c2cn[nH]c2)c2ccc(Cl)c(Cl)c2n1 [I-359] 4.52 to 5.70

Tell us which pIC50 value is on record for OCCCc1cc(-c2cn[nH]c2)c2ccc(Cl)c(Cl)c2n1 [I-271] 4.52 to 5.70

Tell us which pIC50 value is on record for NC(=O)CCNc1cc(-c2cn[nH]c2)c2ccc(Cl)c(Cl)c2n1 [I-190] > 5.70

###

Give IC50 for every item shown.
target under test: recombinant human cGAS (aa147-522) (Homo sapiens)
Construct: recombinant human cGAS (aa147-522); His6-SUMO (cleaved yes); made in house; host or cells: E. coli BL21/pLys
experimental protocol: In vitro inhibition assay of cGAS activity (ATP consumption, KinaseGlo Max)
Type: biochemical
condition summary: Table 2, read-out: cGAS Inhibition Results IC50
Protocol: Expression and Purification of Recombinant cGAS Protein: cDNA encoding full-length or amino acids […] of human cGAS was inserted into a modified pET28a vector containing an in-frame His6-SUMO tag. The E. coli strain BL21/pLys harboring the plasmid was induced with 0.5 mM IPTG at 18° C. overnight. His6-SUMO tag was removed by a SUMO protease digestion following purification of the His6-SUMO-cGAS as described previously (Sun et al, 2013, Science 339, 786). […]

Tell us which IC50 value is on record for Clc1c(-n2ccnc2)cc2c(-n3ccnc3)cc(-c3ccccc3)nc2c1Cl > 30000 nM

Tell us which IC50 value is on record for O=C(O)Cc1cccc(-c2cc(-n3ccnc3)c3ccc(Cl)cc3n2)c1 > 30000 nM

Tell us which IC50 value is on record for O=c1[nH]c2cc(-c3cc(-n4ccnc4)c4ccc(Cl)cc4n3)ccc2o1 > 30000 nM

Tell us which IC50 value is on record for O=P(O)(O)OC1CCCN(c2cc(-n3ccnc3)c3ccc(Cl)c(Cl)c3n2)C1 (stereo not drawn) < 2000 nM

Tell us which IC50 value is on record for O=C(O)C(Cc1ccc(O)cc1)Nc1cc(-n2ccnc2)c2ccc(Cl)c(Cl)c2n1 (stereo not drawn) < 2000 nM

Tell us which IC50 value is on record for CNC(=O)[C@@H]1CCCN1c1cc(-n2ccnc2)c2ccc(Cl)c(Cl)c2n1 2000 to 30000 nM

Tell us which IC50 value is on record for NS(=O)(=O)O[C@H]1CCCN(c2cc(-n3ccnc3)c3ccc(Cl)c(Cl)c3n2)C1 2000 to 30000 nM

Tell us which IC50 value is on record for CN(CCS(N)(=O)=O)c1cc(-n2ccnc2)c2ccc(Cl)c(Cl)c2n1 < 2000 nM

Tell us which IC50 value is on record for O=C(O)[C@@H]1CCCN1C(=O)C[C@@H]1CCCN1c1cc(-c2cn[nH]c2)c2ccc(Cl)c(Cl)c2n1 < 2000 nM

###

target under test: recombinant human cGAS (aa147-522) (Homo sapiens)
Construct: recombinant human cGAS (aa147-522); His6-SUMO (cleaved yes); made in house; host or cells: E. coli BL21/pLys
experimental protocol: In vitro inhibition assay of cGAS activity (ATP consumption, KinaseGlo Max)
Format: biochemical
condition summary: Table 2, read-out: cGAS Inhibition Results IC50
readout: IC50

Tell me its IC50 on recombinant human cGAS (aa147-522) (Homo sapiens): O=C(CO)NC1(C(=O)O)CCCN(c2cc(-n3ccnc3)c3ccc(Cl)c(Cl)c3n2)C1 (stereo not drawn) < 2 µM

Tell me its IC50 on recombinant human cGAS (aa147-522) (Homo sapiens): O=C(NCCO)[C@@H]1CCCN1c1cc(-n2ccnc2)c2ccc(Cl)c(Cl)c2n1 2 to 30 µM

Tell me its IC50 on recombinant human cGAS (aa147-522) (Homo sapiens): Clc1ccc2c(-c3ccncc3)cc(-c3ccccc3)nc2c1 > 30 µM

Tell me its IC50 on recombinant human cGAS (aa147-522) (Homo sapiens): CC(C)[C@@H](CC(=O)O)Nc1cc(-n2ccnc2)c2ccc(Cl)c(Cl)c2n1 2 to 30 µM

Tell me its IC50 on recombinant human cGAS (aa147-522) (Homo sapiens): COC(=O)[C@H]1CCCN(c2cc(-n3ccnc3)c3ccc(Cl)cc3n2)C1 > 30 µM

Tell me its IC50 on recombinant human cGAS (aa147-522) (Homo sapiens): CN1CCN(c2cc(-n3ccnc3)c3ccc(Cl)c(Cl)c3n2)CC1C(=O)O (stereo not drawn) < 2 µM

Tell me its IC50 on recombinant human cGAS (aa147-522) (Homo sapiens): Oc1c(Br)ccc2c(-n3ccnc3)cc(-c3ccccc3)nc12 2 to 30 µM

Tell me its IC50 on recombinant human cGAS (aa147-522) (Homo sapiens): Clc1ccc2c(-n3ccnc3)cc(-c3cn[nH]c3)nc2c1Cl < 2 µM

Tell me its IC50 on recombinant human cGAS (aa147-522) (Homo sapiens): Cc1cc(NCCS(N)(=O)=O)c2ccc(Cl)c(Cl)c2n1 > 30 µM
